# Test system: IGROV1 ovarian
# PROTOCOL DETAILS: NCI tumour cell line growth inhibition, 48 h
So I've got a bunch of compounds here, and I need their GI50 values.

Solved entries (count: 5):
| COMPOUND | GI50 |
| --- | --- |
| OCC#CCCCCOCC#Cc1ccccc1C#CCOCCCCC#CCO | 46.1 µM |
| CNC1=CC(=O)C2=C(C1=O)C1C3=C(C(=O)C(Br)=C(OC)C3=O)C2c2ccccc21 (stereo not drawn) | 1.35 µM |
| Cc1ccc(S(=O)(=O)N[C@@H](Cc2ccccc2)C(=O)CCl)cc1 | 8.25 µM |
| CC(C)c1ccc(/C=N/N=C(N)N)cc1 | 11 µM |
| N#CSCC1CC(O)(c2ccccc2)CC(c2ccc(Cl)cc2)O1 (stereo not drawn) | 2.75 µM |

For the 6 compounds below, give their GI50 values.
1. Cc1cc(S(=O)(=O)Nc2nc3ccccc3[nH]2)c(SCc2ccccc2)cc1Cl
2. CCOC(=O)Nc1ccc(C(=O)/C=C/c2ccccc2)cc1
3. CC1=C/C(O)CC(=O)Cc2nc(co2)C(=O)N2CCC=C2C(=O)OC(C(C)C)C(C)/C=C\C(=O)NC/C=C\1 (stereo not drawn)
4. CNC(C)[C@H]1CCC2C3CCC4C[C@@H](N(C)C(=O)c5ccccc5)CC[C@]4(C)C3CC[C@@]21C (stereo partly drawn)
5. COc1ccc(Nc2ncc(-c3ccccc3)o2)cc1OC
6. CCOc1ccc(NC(=O)c2cc3ccccc3cc2O)cc1

Result string:
1. 82 µM
2. 19.3 µM
3. 18.6 µM
4. 1.96 µM
5. > 17.1 µM
6. 74 µM

Required: GI50, one value per compound below.
1. NC(=S)N/N=C/c1ccc(OC(=O)COc2ccccc2)cn1
2. COc1cc2oc(-c3cccc(C(=O)Nc4ccc(C)cc4)c3)cc(=O)c2c(OC)c1OC
3. COc1cc(O)c2c(=O)c(OC)c(-c3ccc(OC)c(OC)c3)oc2c1.[Zn+2]
4. O=C(c1ccccc1)c1ccc(O)c2ncccc12
5. O=C([CH-]C(=O)c1ccccc1)c1ccccc1.[CH3-].[CH3-].[CH3-].[Sn+4]

Result string:
1. 9.39 µM
2. 2.99 µM
3. 29.8 µM
4. 2.4 µM
5. 33.1 µM

Report GI50 for every entry below.
1. CCCC(CCC)Oc1ccc(CCCC2=C(O)c3ccccc3C(=O)C2=O)cc1
2. C=C(CN(C)Cc1ccccc1)c1ccc(C(=O)Nc2ccccc2N)cc1

Result string:
["4.93 µM", "0.606 µM"]

// data source = PubChem BioAssay (NCI)
